Data origin: ChEMBL document CHEMBL5241100

Give Ki for every item shown.
Biological target: Carbonic anhydrase 12 (Homo sapiens)
Sequence (O43570 whole entry): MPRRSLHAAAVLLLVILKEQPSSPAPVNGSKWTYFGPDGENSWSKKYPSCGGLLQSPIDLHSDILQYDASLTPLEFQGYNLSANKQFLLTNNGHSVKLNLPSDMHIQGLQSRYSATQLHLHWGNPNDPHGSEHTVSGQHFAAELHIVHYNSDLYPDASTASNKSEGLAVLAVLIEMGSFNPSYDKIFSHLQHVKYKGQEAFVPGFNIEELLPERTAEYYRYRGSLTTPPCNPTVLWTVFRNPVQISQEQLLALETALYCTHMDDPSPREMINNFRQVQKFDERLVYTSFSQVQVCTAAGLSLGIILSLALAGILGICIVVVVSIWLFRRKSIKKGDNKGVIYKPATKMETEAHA

INSERT INTO measurements (compound, result) VALUES
  ('COc1cc(C2CC(c3cccs3)=NN2c2ccc(S(N)(=O)=O)cc2)cc(OC)c1OC (configuration not stated)', '≥ 9 nM');

Now look at this one.
Name the recorded Ki of the compound listed here: COc1cc(C2CC(c3ccc(F)cc3)=NN2c2ccc(S(N)(=O)=O)cc2)cc(OC)c1OC (configuration not stated) ≥ 9 nM

###

Biological target: Carbonic anhydrase 2 (Homo sapiens, UniProt P00918)
Observable: Ki (nM)
Answers are plain numbers, in nM.

INSERT INTO measurements (compound, observable, reading_unit, recorded_number) VALUES
  ('COc1cc(C2CC(c3cccs3)=NN2c2ccc(S(N)(=O)=O)cc2)cc(OC)c1OC (configuration not stated)', 'Ki', 'nM', 89);

# input for lookup
Recall and state the measured Ki for COc1cc(C2CC(c3ccc(F)cc3)=NN2c2ccc(S(N)(=O)=O)cc2)cc(OC)c1OC (configuration not stated) . 89
